FYI, the data here is from ChEMBL document CHEMBL4229390.

# pEC50 per record follows
# system.name: Peroxisome proliferator-activated receptor gamma (Homo sapiens)
# Sequence (P37231 whole entry): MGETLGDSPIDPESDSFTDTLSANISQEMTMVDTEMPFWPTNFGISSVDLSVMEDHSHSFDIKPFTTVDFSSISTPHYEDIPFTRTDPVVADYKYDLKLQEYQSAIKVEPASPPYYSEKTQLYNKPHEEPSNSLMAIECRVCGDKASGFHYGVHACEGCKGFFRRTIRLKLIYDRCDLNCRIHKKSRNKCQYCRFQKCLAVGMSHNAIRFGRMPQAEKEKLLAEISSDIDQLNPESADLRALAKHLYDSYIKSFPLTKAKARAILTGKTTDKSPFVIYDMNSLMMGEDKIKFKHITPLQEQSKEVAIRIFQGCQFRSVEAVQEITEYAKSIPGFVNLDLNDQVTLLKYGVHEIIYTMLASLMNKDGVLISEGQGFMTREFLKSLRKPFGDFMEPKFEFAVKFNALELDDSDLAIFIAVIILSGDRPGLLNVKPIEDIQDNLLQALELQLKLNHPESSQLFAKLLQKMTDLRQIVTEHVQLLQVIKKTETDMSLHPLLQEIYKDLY
# experimental.protocol: Agonist activity at human PPARgamma after 22 to 24 hrs by luciferase reporter gene assay
pEC50: −log10 of the molar value.

- structure.notation: "COc1ccc(COc2ccc(CNc3cccc(OC(C)(C)C(=O)O)c3)cc2)cc1"
  modifier.sign: "="
  pEC50: 4.74
- structure.notation: "COc1ccc(COc2ccc(CNc3cccc(C(=O)O)c3)cc2)cc1"
  modifier.sign: "<"
  pEC50: 4.00
- structure.notation: "COc1ccc(COc2ccc(CNc3cccc(C(=O)O)c3)c(OCc3ccc(OC)cc3)c2)cc1"
  modifier.sign: "<"
  pEC50: 4.00
- structure.notation: "COc1ccc(COc2ccc(CNc3cccc(OC(C)(C)C(=O)O)c3)c(OCc3ccc(OC)cc3)c2)cc1"
  modifier.sign: "="
  pEC50: 5.25
